Target: Trypsin-activated Cry1F toxin from Bacillus thuringiensis (Bacillus thuringiensis, UniProt Q03746 1-1174)
Sequence (Q03746 28-612 limits assumed): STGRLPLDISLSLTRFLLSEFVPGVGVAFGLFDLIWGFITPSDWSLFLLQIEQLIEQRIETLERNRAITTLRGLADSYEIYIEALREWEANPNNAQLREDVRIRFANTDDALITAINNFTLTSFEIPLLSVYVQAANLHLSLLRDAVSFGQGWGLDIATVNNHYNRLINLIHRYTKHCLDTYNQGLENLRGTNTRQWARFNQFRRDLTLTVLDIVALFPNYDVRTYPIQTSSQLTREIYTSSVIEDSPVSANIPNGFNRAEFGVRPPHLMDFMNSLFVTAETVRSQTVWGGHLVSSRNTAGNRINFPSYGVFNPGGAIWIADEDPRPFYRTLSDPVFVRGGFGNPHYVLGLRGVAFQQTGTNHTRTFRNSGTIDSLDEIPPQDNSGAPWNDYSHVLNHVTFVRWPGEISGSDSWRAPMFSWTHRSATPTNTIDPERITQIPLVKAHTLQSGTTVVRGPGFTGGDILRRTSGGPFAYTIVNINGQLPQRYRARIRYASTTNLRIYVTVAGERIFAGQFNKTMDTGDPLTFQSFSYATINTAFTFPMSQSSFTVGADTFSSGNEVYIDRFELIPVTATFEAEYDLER
Assay: SPR; Biacore 8K; activated Cry1F immobilised on a CM5 chip (10 mM sodium acetate pH 4.0); analytes without His tag in 10 mM HEPES, 150 mM NaCl, 3 mM EDTA, 0.005% Tween-20, pH 7.4; 30 uL/min, association 120 s, dissociation 280 s; 1:1 binding model
Conditions: both partners purified

{"binder": "hemolymph lipopolysaccharide-binding protein (LBP), His tag removed (natural protein, Wild-type trypsin-activated core; the text prints neither the Cry1F subtype nor the limits. Cry1Fa assumed, with the conventional tryptic core 28-612.) QKRYRNDYVYDANTDAFYKFHVNMAVHWRALTICKLEGATLMVPTSVQQIAQVHGMFKQYPDIGHYVWIGDDNADHESAEETPIIDLQPEVETEAPWERRCLVLTRRGEIQTQNCRYYQSFVCMVEAKNAPYDHRCDVYAAGYEYNTDVKSCYKIPRDIKTWNAAYAECQAHGAHLVVVNSVTERDVLQALMSRTPYLRTSFSPYHYIAGIRATSVIGSEVVYRTIFNETLEEAGFSEWADNEPNNQQGIEYCGSLHQRSGKYNDISCLSSFGYICEKERNE", "measurement.unit": "s⁻¹", "koff": 0.00294}

Source: paper PMC9714555
